# protocol_details: P. aeruginosa biofilm formation inhibitors, primary screen, PAO1 strain, BacTiter-Glo luminescence, LB-PBS (AID 1144)
# assay_setup: 12 h, higher = more signal
The label depends only on z-score: y if it is at least 0.7, n if it is smaller.

- chemical_structure: "O=C1C[C@@H](O)[C@@H](O)[C@@H]2[C@@H]3C(=O)N(C4CCCCC4)C(=O)[C@@H]3CC[C@@H]12"
  class_name: "y"
- chemical_structure: "COc1ccc(OC[C@@H](CO)OC)cc1"
  class_name: "y"
- chemical_structure: "CO[C@H]1COC(=O)CC=C[C@H](C)[C@H](OC)COC(=O)[C@@H](C)NC(=O)CC=C[C@@H]1C"
  class_name: "n"
- chemical_structure: "COC(OC)[C@@H](C)[C@H](OC)[C@@H](C)[C@H](OC)c1ccccc1"
  class_name: "n"
- chemical_structure: "CCOC(=O)NN=C1C[C@@H](O)[C@@H](O)[C@@H]2[C@@H]3C(=O)N(CC)C(=O)[C@@H]3CC[C@H]12"
  class_name: "n"

* * *

# protocol_details: binders of probe aFGF10 on microarray, primary screen, stem cell growth factor project, biochemical, small-molecule microarray, fluorescence 635/667 (AID 1071);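 further: score merges 667 nm spot intensity and signal to noise from triplicate slides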
# assay_setup: higher = more signal
The label depends only on composite z-score: criterion met if it is at least 0.2, criterion not met if it is smaller.

- compound: "C[C@H]1CC[C@H]2C(=O)O[C@H](CO)CN2[C@@H]1c1ccc(Br)cc1"
  class_name: "criterion not met"
- compound: "CCOC(=O)[C@H](CC(C)C)NC(=O)CCC1CC(OC(=O)NCCc2ccc(F)cc2)CC2(CCCC(COC(=O)NCc3cccc4ccccc34)O2)O1 (stereo partly drawn)"
  class_name: "criterion not met"
- compound: "CO[C@@H](C1CCCCC1)[C@@H](C)[C@H](OCc1cccc(Br)c1)[C@@H](C)CO"
  class_name: "criterion not met"
- compound: "C[C@H]1C=CCC(=O)OC[C@H](C)C(=O)N2CCC[C@H]2C(=O)OC1"
  class_name: "criterion not met"
- compound: "CCOC(=O)CCN1C(=O)[C@H]2[C@H]3[C@H](O)[C@H](O)CC(=NNC(=O)OCc4ccc(OC)cc4)[C@H]3CC[C@H]2C1=O"
  class_name: "criterion not met"
- compound: "CC(C)C(=O)N[C@H]1CCCN1C(=O)C=Cc1ccccc1"
  class_name: "criterion met"
- compound: "O=C1[C@H]2[C@H]3[C@H](O)[C@H](O)CC(=NO[C@@H]4O[C@H](CO)[C@@H](O)[C@H](O)[C@H]4O)[C@H]3CC[C@H]2C(=O)N1c1ccc(F)cc1F"
  class_name: "criterion met"
- compound: "CCOC(=O)NN=C1C[C@@H](O)[C@@H](O)[C@@H]2[C@@H]3C(=O)N(C[C@@H]4CCCO4)C(=O)[C@@H]3CC[C@H]12"
  class_name: "criterion met"

* * *

# protocol_details: binders of probe aFGF2 on microarray, primary screen, stem cell growth factor project, biochemical, small-molecule microarray, fluorescence 635/667 (AID 1067);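 further: measures binding of biotinylated aFGF2 protein to printed compounds on slides; z-score merges feature fluorescence and signal-to-noise across triplicate slides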
# assay_setup: higher = more signal
The label depends only on composite z-score: Y if it is at least -0.09, N if it is smaller.

- chemical_structure: "CC(=O)OC[C@H]1O[C@H](C#CCC2CCCCC2)C=C[C@@H]1OC(C)=O"
  class_name: "Y"
- chemical_structure: "CO[C@@H]1C=CCC(=O)N[C@@H](C)C(=O)OC[C@@H](NS(=O)(=O)c2ccc(C)cc2)[C@H](C)C=CCC(=O)OC[C@H]1C"
  class_name: "N"
- chemical_structure: "C[C@@H](c1ccccc1)N1C(=O)[C@H]2[C@H]3[C@H](O)[C@H](O)CC(=NNC(=O)OCc4ccccc4)[C@@H]3CC[C@H]2C1=O"
  class_name: "N"
- chemical_structure: "O=C1[C@H]2[C@H]3[C@H](O)[C@H](O)CC(=NOC[C@@H](O)COCc4ccco4)[C@@H]3CC[C@H]2C(=O)N1c1cccc(Oc2ccccc2)c1"
  class_name: "N"
- chemical_structure: "O=C1[C@H]2[C@H]3[C@H](O)[C@H](O)CC(=NOC[C@@H](O)COCc4ccco4)[C@@H]3CC[C@H]2C(=O)N1C1CCCCC1"
  class_name: "N"
- chemical_structure: "CC(C)=CCCC(C)=CCON=C1C[C@@H](O)[C@@H](O)[C@@H]2[C@@H]3C(=O)N([C@@H](C)c4ccccc4)C(=O)[C@@H]3CC[C@@H]12"
  class_name: "Y"

* * *

# protocol_details: mitochondrial membrane potential change in A549 cells, profiling panel, cell-based, JC-1 fluorescence, basal, 24 h, 100 nL (AID 1138);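 further: A549 lung adenocarcinoma cells under basal conditions with no added stimulus; test concentration not given here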
# assay_setup: higher = more signal
The reader will find reported z-score values listed item by item below.
observed_property: z-score

- compound: "COC(=O)[C@H](CCSC)NC(=O)CC=C[C@@H](C)CO"
  value_reported: -1.08
- compound: "CC(CCC(=O)OC[C@H]1O[C@H](C#Cc2ccccc2)C=C[C@@H]1Oc1ccc(C)cc1)=NOC[C@@H](C)[C@H](OCc1ccccc1)C(C)C"
  value_reported: -0.197
- compound: "CC(=O)OC[C@H]1O[C@H](CC=NOCC[C@@H]2C=C[C@H](OC(C)=O)[C@@H](COC(C)=O)O2)C=C[C@@H]1OC(C)=O"
  value_reported: -0.6
- compound: "C=CC[C@@H]1C=C[C@H](ON=CC[C@@H]2C=C[C@H](OC(C)=O)[C@@H](COC(C)=O)O2)[C@@H](CO)O1"
  value_reported: -0.0536
- compound: "CCN1C(=O)[C@H]2[C@H]3[C@H](O)[C@H](O)CC(=NO[C@@H]4O[C@H](CO)[C@@H](O)[C@H](O)[C@H]4O)[C@H]3CC[C@H]2C1=O"
  value_reported: -0.8
- compound: "CCO[C@H](c1cc(OC)cc([N+](=O)[O-])c1OC)[C@H](C)[C@@H](OC)[C@H](C)C=CCC(=O)OC"
  value_reported: 0.163
- compound: "CCOC(=O)[C@H](CC(C)C)NC(=O)CCC1CC(OC(=O)NCCc2ccc(F)cc2)CC2(CCCC(COC(=O)NCc3cccc4ccccc34)O2)O1 (stereo not given in full)"
  value_reported: 0.755
- compound: "CC(CCC(=O)OC[C@H]1O[C@H](C#Cc2ccccc2)C=C[C@@H]1Oc1ccc(C)cc1)=NOC(C)CN1CCCc2nc(C)c(C)cc21 (stereo not given in full)"
  value_reported: 0.238
- compound: "C=CC[C@@H]1C=C[C@H](ON=C[C@@H](NS(=O)(=O)c2ccc(C)cc2)[C@H](C)C=CCC(=O)OC)[C@@H](CO)O1"
  value_reported: -0.0376
- compound: "COc1ccc(OC[C@@H](CO)OC)cc1"
  value_reported: 0.754
- compound: "CCOC(=O)NN=C1C[C@@H](O)[C@@H](O)[C@@H]2[C@@H]3C(=O)N(C[C@@H]4CCCO4)C(=O)[C@@H]3CC[C@H]12"
  value_reported: -0.311
- compound: "CCOC(=O)[C@H](Cc1ccccc1)NC(=O)CCC1CC(OC(=O)NCCc2ccc(F)cc2)CC2(CCCC(COC(=O)NCCC(C)C)O2)O1 (stereo not given in full)"
  value_reported: 0.833
- compound: "CCOC(=O)[C@H](CC(C)C)NC(=O)CCC1CC(OC(=O)NCCc2ccc(F)cc2)CC2(CCCC(COC(=O)NCc3cccc(C(F)(F)F)c3)O2)O1 (stereo not given in full)"
  value_reported: -0.208
- compound: "CCOC(=O)[C@H](CC(C)C)NC(=O)CCC1CC(OC(=O)NCc2ccc3c(c2)OCO3)CC2(CCCC(COC(=O)NCCOc3ccccc3)O2)O1 (stereo not given in full)"
  value_reported: 0.574
- compound: "COC(=O)[C@H](C)NC(=O)CCC1CC(OC(=O)NCc2cccc3ccccc23)CC2(CCCC(COC(=O)NCCOc3ccccc3)O2)O1 (stereo not given in full)"
  value_reported: -0.333

* * *

# protocol_details: basal HepG2 mitochondrial membrane potential changes, profiling panel, cell-based, JC-1 fluorescence, 24 h, 100 nL compound (AID 1167); further: test concentration not given here
# assay_setup: higher = more signal

- compound: "O=C1[C@H]2[C@H]3[C@H](O)[C@H](O)CC(=NO[C@@H]4O[C@H](CO)[C@@H](O)[C@H](O)[C@H]4O)[C@H]3CC[C@H]2C(=O)N1c1ccc(F)cc1F"
  z-score: 0.419
- compound: "CC(C)=NO[C@@H](C)c1cn([C@H](CO)Cc2ccccc2)nn1"
  z-score: 0.614
- compound: "O=C1CCCC=C1C(O)c1ccc([N+](=O)[O-])cc1 (centres undefined)"
  z-score: -0.614
- compound: "COc1ccc(COC(=O)NN=C2C[C@@H](O)[C@@H](O)[C@@H]3[C@@H]4C(=O)N(Cc5ccccc5)C(=O)[C@@H]4CC[C@@H]23)cc1"
  z-score: 0.335
